Give measured Ki for each item. Keep answers brief.
target-entity: human σ1 receptor (Homo sapiens, UniProt Q99720)
Sequence (Q99720 whole entry): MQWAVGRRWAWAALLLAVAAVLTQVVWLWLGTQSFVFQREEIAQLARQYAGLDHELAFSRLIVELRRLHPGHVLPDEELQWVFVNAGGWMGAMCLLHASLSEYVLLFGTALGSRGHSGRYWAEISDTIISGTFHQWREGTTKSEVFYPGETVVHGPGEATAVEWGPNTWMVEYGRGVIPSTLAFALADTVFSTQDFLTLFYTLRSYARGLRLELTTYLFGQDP
test-protocol: Human σ1 receptor radioligand assay ([3H](+)-pentazocine, transfected HEK-293 membranes)
Assay type: binding
condition-label: one class symbol for both Ki-σ1 (human σ1 receptor, A1) and Ki-μ (human μ-opioid receptor, A2); read-out: μ and σ1 dual binding
From the text: Human σ1 Receptor Radioligand Assay To investigate binding properties of test compounds to human σ1 receptor, transfected HEK-293 membranes and [^3H](+)-pentazocine (Perkin Elmer, NET-1056), as the radioligand, were used. […] Filters were dried and counted at approximately 40% efficiency in a MicroBeta scintillation counter (Perkin-Elmer) using EcoScint liquid scintillation cocktail

I'm curious: which Ki was measured for CC(C)OCCN(C)C1CN(C2(C(=O)c3ccccn3)CCOC(C)(C)C2)C1 (stereo not drawn) tested on human σ1 receptor (Homo sapiens, UniProt Q99720)?
> 500 nM

I'm curious: which Ki was measured for `CC(C)OCCN(C)[C@@H]1CCN([C@@]2(C(=O)c3ccccn3)CCOC(C)(C)C2)C1` tested on human σ1 receptor (Homo sapiens, UniProt Q99720)?
> 500 nM

I'm curious: which Ki was measured for `N#Cc1ccc(CN2CCN(C3(C(=O)c4ccccn4)CCOCC3)CC2)cc1F` tested on human σ1 receptor (Homo sapiens, UniProt Q99720)?
> 500 nM

I'm curious: which Ki was measured for CC(C)CN1CCN(C2(C(=O)c3ccccn3)CCOC(C)(C)C2)CC1 (stereo not drawn) tested on human σ1 receptor (Homo sapiens, UniProt Q99720)?
> 500 nM

I'm curious: which Ki was measured for `CC[C@]1(N2CCN(CCc3ccccc3)CC2)CCOC(C)(C)C1` tested on human σ1 receptor (Homo sapiens, UniProt Q99720)?
< 500 nM

I'm curious: which Ki was measured for `COc1cc(CN2CCN(C3(C(=O)c4ccccn4)CCOCC3)CC2)ccc1F` tested on human σ1 receptor (Homo sapiens, UniProt Q99720)?
> 500 nM

I'm curious: which Ki was measured for `CC[C@@]1(N2CCN(Cc3ccc(C#N)cc3)CC2)CCO[C@@H](C)C1` tested on human σ1 receptor (Homo sapiens, UniProt Q99720)?
> 500 nM

I'm curious: which Ki was measured for CCOCCCN1CCC(C2(C(=O)c3ccccn3)CCOC(C)(C)C2)CC1 (stereo not drawn) tested on human σ1 receptor (Homo sapiens, UniProt Q99720)?
> 500 nM

I'm curious: which Ki was measured for CC(C)CCN1CCN([C@]2(C(=O)c3ccccn3)CCO[C@@H](C)C2)CC1 [Example 169] tested on human σ1 receptor (Homo sapiens, UniProt Q99720)?
< 500 nM
